Sourced from ChEMBL document CHEMBL2034946

- experimentDescription: Metabolic stability in rat liver microsomes assessed as compound remaining after 30 mins
- Assay type: ADME, Microsome
- conditionSummary: read-out: Stability
measuredEndpoint: remaining at 0.5 h (%)

Here are 2 compounds together with their reported answers.
compound	remaining at 0.5 h / %
NC(=O)[C@]12CC3CC(C1)[C@@H](NC(=O)CN1CCCN(c4c(Cl)cc(Cl)cc4Cl)S1(=O)=O)C(C3)C2	57
CC1CN(CC(=O)N[C@H]2C3CC4CC2C[C@](C(N)=O)(C4)C3)S(=O)(=O)N(c2c(Cl)cc(Cl)cc2Cl)C1 (mixture of isomers)	78

A = CC1CCN(c2c(Cl)cc(Cl)cc2Cl)S(=O)(=O)N1CC(=O)N[C@H]1C2CC3CC1C[C@](C(N)=O)(C3)C2 (mixture of isomers)
B = CN(CC(=O)N[C@H]1C2CC3CC1C[C@](C(N)=O)(C3)C2)S(=O)(=O)N(C)c1c(Cl)cc(Cl)cc1Cl
C = NC(=O)[C@]12CC3CC(C1)[C@@H](NC(=O)CN1CCCCN(c4c(Cl)cc(Cl)cc4Cl)S1(=O)=O)C(C3)C2
(Q) # rank_down: sort by remaining at 0.5 h, max first # output: labels, in the requested order
(A) A, C, B
